test system: CCRIS mutagenicity, Ames/micronucleus/aberration tests; test: CCRIS mutagenicity studies; conditions: Test System: AMES SALMONELLA TYPHIMURIUM; Strain/Indicator: TA98; Metabolic Activation: RAT, LIVER, S-9, AROCLOR 1254; Method: PREINCUBATION
Calls of active or inactive are those of the source. No rule for the calls is given here.
Hi there, use one of these labels in your reply, thanks! active, inactive

Some solved entries appear below for comparison.
>  <compound>
C/C=C\C(=O)O[C@@H]1C[C@H]2O[C@@H]3C=C(C)C(=O)C[C@]3(C)[C@]1(C)[C@]21CO1

>  <class.label>
inactive

$$$$
>  <compound>
Oc1ccc(-c2ccc(O)cc2)cc1

>  <class.label>
inactive

$$$$
>  <compound>
ClC=C(Cl)Cl

>  <class.label>
inactive

$$$$

Please share the test call associated with O=NN1CSCC1C(=O)O (centres undefined) .
inactive

Please share the test call associated with CC1=C(O)C(=O)CC1 .
inactive
